Test system: EKVX NSCLC
Experiment: NCI tumour cell line growth inhibition, 48 h
MEASUREMENT_NAME: TGI

# annotated cases, reported TGI shown
- CPD_SMILES: "COC(=O)c1ccc(NCC2=CC(=O)c3ccccc3C2=O)cc1"
  OBSERVED_RESULT: "66.5 µM"
- CPD_SMILES: "Cc1ccc(C2=Nc3ccccc3NC(=O)C2)cc1"
  OBSERVED_RESULT: "> 100 µM"

Entry COc1ccc2nc(NC(=O)C(=O)CC(=O)c3ccc(Cl)cc3)sc2c1 ; TGI = > 100 µM

Quick note, TGI for COc1ncc(C#CC(=O)c2ccccc2OC)c(OC)n1 landed at 10.3 µM

Entry C=CCN=C1N=C(CC(=O)OCC)CS1 ; TGI = > 100 µM

Measured TGI of C=C1CC(CNc2cc(Cl)nc(N)n2)C1 : > 100 µM
